The reported measurements were obtained from the RNAGym collection of RNA variant scans (doi:10.1073/pnas.2313332121).

Catalogue of polymerase ribozyme fitness (log ratio) values
B1: TPR t1 (parent)
chain: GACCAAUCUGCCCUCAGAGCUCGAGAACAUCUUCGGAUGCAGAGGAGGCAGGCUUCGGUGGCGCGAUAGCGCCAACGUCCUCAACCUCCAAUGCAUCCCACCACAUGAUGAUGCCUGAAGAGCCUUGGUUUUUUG

variants of: B1; assay: polymerase ribozyme fitness, log enrichment relative to wild type (log ratio); higher = more active; in vitro selection for triplet polymerase activity
Lab note: jot down the number only; don't add units.

Illustrative cases are given below, each with its answer.
G69U C99U: -1.7
A50G A75U C80U U81A C114U U133C: -4.62
U7A C20U G120U: -0.3
C8A G47C: -1.8
A46G G58C C99U C114G: -6.59

**Q:** Please give measured polymerase ribozyme fitness (log ratio) of the following entry: U32C U112A
**A:** 1.49

**Q:** Identify measured polymerase ribozyme fitness (log ratio) corresponding to C34G G63C
**A:** -6.66

**Q:** Identify polymerase ribozyme fitness (log ratio) associated with the variant C11A G69U C97A C101A C104A
**A:** -3.94

**Q:** Dear colleague, please send me the reported polymerase ribozyme fitness (log ratio) for G57C G61U U96G when you can.
**A:** -1.85

**Q:** Please report polymerase ribozyme fitness (log ratio) for the following variant: C8A C64U
**A:** 0.575

**Q:** For G10U G77A U106G , write its polymerase ribozyme fitness (log ratio).
**A:** -2.38

**Q:** Find the measured polymerase ribozyme fitness (log ratio) of G71C C89U U126C and report it.
**A:** -2.71

**Q:** Please list polymerase ribozyme fitness (log ratio) recorded for the variant G19A C88A A95C C114G
**A:** -4.8

**Q:** Supply recorded polymerase ribozyme fitness (log ratio) for U78A A111C here.
**A:** -0.127

**Q:** Supply measured polymerase ribozyme fitness (log ratio) of C82G A95C G110U in your reply.
**A:** -3.96

**Q:** Tell us which polymerase ribozyme fitness (log ratio) value is on record for G42A C115A U130G
**A:** -2.13

**Q:** Entry C40A needs its polymerase ribozyme fitness (log ratio) filled in; supply it.
**A:** -1.28

**Q:** // fetch polymerase ribozyme fitness (log ratio) given entry A5U C11G C12U G61U A111C G113A
**A:** -4.88

**Q:** Provide polymerase ribozyme fitness (log ratio) value for the following variant: G48C G93A A105C
**A:** -4.64

**Q:** For the variant C3U C8A A16U U33A G44A G120C , report polymerase ribozyme fitness (log ratio).
**A:** -6.36

**Q:** Provide one value: measured polymerase ribozyme fitness (log ratio) of C53G U54C A121C
**A:** 1.78

**Q:** Report measured polymerase ribozyme fitness (log ratio); entry is G10A G19A C114U U133G
**A:** 0.465

**Q:** Give recorded polymerase ribozyme fitness (log ratio). G61A G93U
**A:** -0.737

**Q:** Report measured polymerase ribozyme fitness (log ratio); entry is A74U A83U A84C G120U G122A U125A
**A:** -1.84

**Q:** Find the measured polymerase ribozyme fitness (log ratio) of U21G U54C C56A G57C and report it.
**A:** -1.15

**Q:** For the variant C22G C86U C123A , give its measured polymerase ribozyme fitness (log ratio) value.
**A:** -3.08

**Q:** Quickly give me recorded polymerase ribozyme fitness (log ratio) for C22G A41U G44U
**A:** -5.29

**Q:** Kindly indicate its recorded polymerase ribozyme fitness (log ratio). Item: U9C C28G G52U
**A:** -3.99

**Q:** Output polymerase ribozyme fitness (log ratio) of A50G G93C U109A G117C
**A:** -6.26
